# Tgt: T1, recombinant RSV-F protein (RSV A2 strain fusion (F) protein with added His tag) (human respiratory syncytial virus, A2 …, UniProt P03420 26-524)
# T1 construct: also called RSV-F recombinant protein
# Assay procedure: SPR (Biacore), antibody captured, RSV-F as analyte
Recorded metric: kon (M⁻¹ s⁻¹)
Express it in M⁻¹ s⁻¹; write the number only.

Please report the measured kon for R18-22D7QH (antibody, human IgG1, kappa, V domains shown, also called chimeric antibody of R18-22D7) VH: EVKLLESGGGLVQPGGSLKLSCAASGFDFSRYWMSWVRQAPGKGLEWIGEINPDSSTINYTPSLKDKFIISRDNAKNTLYLQMSKVRSEDTALYYCARRGGISYAMDYWGQGTSVTVSS VL: DIVITQDELSNPVTSGESVSISCRSSKSLLYKDGKTYLNWFLQRPGQSPQLLIYLMSTRASGVSDRFSGSGSGTDFTLEISRVKAEDVGVYYCQQLVEYPRTFGGGTKLEIKR
357000

Please report the measured kon for R3-38B6QH (antibody, human IgG1, kappa, V domains shown, also called chimeric antibody of R3-38B6) VH: QVQLEESGPELVKPGASVKISCKASGYAFSSSWMNWVKQRPGQGLEWIGRIYPGDGDTQYHGKVKGKATLTADKSSSTAYMQVSSLTSVDSAVYFCAREGGMITSNGYYHALDYWGQGTSVTVSS VL: DIVMTQTTASLAVSQGQRATISCSASESVDSYGNSFMNWYQQKPGQPPKVLIYLASNLESGVPARFSGSGSRTDFTLTIDPVEADDAATYYCQQNNEDPTFGGGTKLEIKR
495000

Please report the measured kon for R18-11B1QH (antibody, human IgG1, kappa, V domains shown, also called chimeric antibody of R18-11B1) VH: EVQLEESGPELVKPGASVKISCKSSAQTFSGSWINWVKQRPGQGLEWIGRIFPGDGDTKYNMNFTGKATLTADKSSNTAYMHVSSLTSVDSAVYFCARYDGYYDIGYFDVWGAGTTVTVSS VL: DIVMTQTPASLAVSLGQRATISCRASASVDSYGNKFIHWYQQKPGQPPKLLISLASNLESGVPARFSGSGSRTDFTLTIDPVEADDAATYYCQQTNEDPWTFGGGTKLEIKR
824000
